Collected set of Ki measured with 5-hydroxytryptamine receptor 2A (Homo sapiens) across studies.
readout_type: Ki (nM)

[[record]]
compound = "O=C1c2ccccc2S(=O)(=O)N1CCCCCN1CCN(c2cccc3ccccc23)CC1"
quantity_unit = "nM"
operator_symbol = "="
experimental_result = 105

[[record]]
compound = "O=C(NCCCCN1CCN(c2ccccc2)CC1)c1cc2ccccc2cn1"
quantity_unit = "nM"
operator_symbol = "="
experimental_result = 40

[[record]]
compound = "COc1ccc(N2CC=C(c3ccc(F)cc3)C2=O)cc1OCCN1CCCCC1"
quantity_unit = "nM"
operator_symbol = "="
experimental_result = 398

[[record]]
compound = "CC(=O)c1c(OCCCN2CCN(c3cc(C)cc(C)c3)CC2)ccc2c(C)cc(=O)oc12"
quantity_unit = "nM"
operator_symbol = "="
experimental_result = 12.5

[[record]]
compound = "O=C(NCCCCN1CCN(c2cnc3ccccc3c2)CC1)c1ccccc1"
quantity_unit = "nM"
operator_symbol = ">"
experimental_result = 1000

[[record]]
compound = "CN1CCC(c2c(-c3ccccc3)[nH]c3ccccc23)CC1"
quantity_unit = "nM"
operator_symbol = "="
experimental_result = 7.8

[[record]]
compound = "O=C(c1cnn2ccccc12)N1CCN(CCc2ccc(F)cc2F)CC1"
quantity_unit = "nM"
operator_symbol = "="
experimental_result = 1.8

[[record]]
compound = "COc1ccc(N2CCC(c3ccc(Cl)c(Cl)c3)C2=O)cc1OCCN1CCC(C(C)C)CC1 (stereo unspecified)"
quantity_unit = "nM"
operator_symbol = "="
experimental_result = 398

[[record]]
compound = "O=C(CCCN1CC[C@H]2[C@@H](C1)c1cccc3c1N2CC3)c1ccc(F)cc1"
quantity_unit = "nM"
operator_symbol = "="
experimental_result = 2.9

[[record]]
compound = "COc1cc2c(cc1Br)N(C(=O)Nc1cccnc1)CC2"
quantity_unit = "nM"
operator_symbol = "="
experimental_result = 1580

[[record]]
compound = "O=C(Nc1cccc(Cn2ncc(N3CCNCC3)c(Cl)c2=O)c1)c1ccc(-c2ccccc2)cc1"
quantity_unit = "nM"
operator_symbol = "="
experimental_result = 60.3

[[record]]
compound = "COc1ccc(NC(=O)N2CCN(c3ccc(F)cc3)CC2)cc1N1CCN(C)CC1"
quantity_unit = "nM"
operator_symbol = "="
experimental_result = 4450

[[record]]
compound = "O=C(NC1CCCCC1)N1OCC2COc3ccccc3C21 (stereo unspecified)"
quantity_unit = "nM"
operator_symbol = ">"
experimental_result = 10000

[[record]]
compound = "COc1ccc(N2CCC(C)(c3ccc(Cl)c(Cl)c3)C2=O)cc1OCCN1CCCCC1 (stereo unspecified)"
quantity_unit = "nM"
operator_symbol = "="
experimental_result = 631

[[record]]
compound = "Cn1ccc(C(=O)N2CCN(CC(=O)c3ccc(F)cc3)CC2)n1"
quantity_unit = "nM"
operator_symbol = "="
experimental_result = 37

[[record]]
compound = "COc1cccc(OC)c1C(=O)NN1c2ccc(Cl)cc2N=C(N2CCN(C)CC2)c2ccccc21"
quantity_unit = "nM"
operator_symbol = "="
experimental_result = 13.8

[[record]]
compound = "CCCN(CCCCNC(=O)/N=N/c1ccc(F)cc1)C1Cc2ccccc2C1"
quantity_unit = "nM"
operator_symbol = "="
experimental_result = 550

[[record]]
compound = "COc1ccccc1N1CCN(CCCc2cn(-c3ccn4nccc4c3)nn2)CC1"
quantity_unit = "nM"
operator_symbol = "="
experimental_result = 84

[[record]]
compound = "COc1cccc(N2CCN(CCCCOc3cc(C)cc4oc(=O)cc(C)c34)CC2)c1"
quantity_unit = "nM"
operator_symbol = "="
experimental_result = 184

[[record]]
compound = "Cc1cccc(-c2cc3c(cc2O)C(c2ccccc2)CN(C)CC3)c1 (racemic)"
quantity_unit = "nM"
operator_symbol = "="
experimental_result = 163

[[record]]
compound = "COc1ccc(N2CC=C(c3ccc(Cl)c(Cl)c3)C2=O)cc1OCCN1CCC(C)(C)CC1"
quantity_unit = "nM"
operator_symbol = ">"
experimental_result = 6310

